- System: OVCAR-3 ovarian
- Test description: NCI tumour cell line growth inhibition, 48 h
Attribute measured: TGI

| Compound | Experimental system | Attribute measured | Observed measurement |
| --- | --- | --- | --- |
| COc1cc2c(cc1OC(=O)CC(C)O)C1C(OC2=O)C(OC(C)=O)C=C2CCN(C)[C@H]21 (stereo not given in full) | OVCAR-3 ovarian | TGI | > 100 µM |
| Cc1ccc(N2C(=O)C3c4[nH]c5ccccc5c4C4CCC(C(C)(C)C)CC4C3C2=O)cc1 (stereo not given) | OVCAR-3 ovarian | TGI | 8.62 µM |

Query string: # input compound: COC(=O)[C@@H]1CN(C(=O)CCc2ccccc2)C(=O)N1C(=O)OCc1ccccc1 ; wanted: its TGI
Result string: > 100 µM

Query string: Also, CN(C)c1ccc(C=C2C(=O)OC(C)(C)OC2=O)cc1Br please.
Result string: > 100 µM

Query string: Also, CCCC(=O)NC1=C(NCC)C(=O)c2ccccc2C1=O please.
Result string: > 100 µM
